// data source = patent US20200024330A1

# EXPERIMENTAL TARGET: HIV-1 JR-FL Env E168K (pseudovirus) (HIV-1 JR-FL)
# PROTOCOL TEXT: cell-based or functional assay
EXPERIMENTAL READOUT: IC50 (ug/ml), neutralization (µg/mL)
Numbers only, in µg/mL.

1503_H05 (PG16) (TCN-119) (antibody, V domains shown) VH: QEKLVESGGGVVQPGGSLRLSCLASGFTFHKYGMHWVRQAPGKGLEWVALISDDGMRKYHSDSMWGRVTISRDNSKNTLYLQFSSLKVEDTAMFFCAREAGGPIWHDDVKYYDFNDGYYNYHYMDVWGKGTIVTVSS VL: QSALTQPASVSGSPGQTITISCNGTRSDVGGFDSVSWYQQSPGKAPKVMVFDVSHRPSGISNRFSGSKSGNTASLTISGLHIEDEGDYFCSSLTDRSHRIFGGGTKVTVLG; 0.002

// each listed binder needs a value for IC50 (ug/ml), neutralization
1. 1456_A12 (PG16) (TCN-117) (antibody, V domains shown) VH: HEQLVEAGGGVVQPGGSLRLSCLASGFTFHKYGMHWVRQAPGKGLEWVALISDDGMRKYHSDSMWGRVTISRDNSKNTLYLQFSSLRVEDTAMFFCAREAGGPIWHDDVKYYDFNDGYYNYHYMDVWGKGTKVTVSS VL: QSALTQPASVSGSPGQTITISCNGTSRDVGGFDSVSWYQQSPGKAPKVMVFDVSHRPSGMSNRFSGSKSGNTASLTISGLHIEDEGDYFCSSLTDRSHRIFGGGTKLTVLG
2. 1489_I13 (PG16) (TCN-120) (antibody, V domains shown) VH: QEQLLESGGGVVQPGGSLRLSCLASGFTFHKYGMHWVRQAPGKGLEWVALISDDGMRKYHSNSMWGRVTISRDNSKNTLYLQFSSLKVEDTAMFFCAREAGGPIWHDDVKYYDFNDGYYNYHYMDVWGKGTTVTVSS VL: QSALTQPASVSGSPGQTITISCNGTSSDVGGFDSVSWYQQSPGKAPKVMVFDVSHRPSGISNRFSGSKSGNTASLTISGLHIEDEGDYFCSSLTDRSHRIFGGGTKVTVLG
3. 1469_M23 (PG16) (TCN-118) (antibody, V domains shown) VH: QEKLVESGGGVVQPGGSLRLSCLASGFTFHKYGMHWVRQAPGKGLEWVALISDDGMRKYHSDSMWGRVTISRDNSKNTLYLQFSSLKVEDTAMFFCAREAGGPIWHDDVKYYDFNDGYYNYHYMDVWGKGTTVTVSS VL: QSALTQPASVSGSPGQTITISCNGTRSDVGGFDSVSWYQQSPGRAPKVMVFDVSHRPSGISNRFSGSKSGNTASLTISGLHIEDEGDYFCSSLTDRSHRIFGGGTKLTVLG

[reply]
1: 0.003; 2: 0.005; 3: 0.005
